# PROCEDURE_DETAILS: Pharmacokinetic study of the inhibitors in mice blood plasma (PO and IV)
# Assay type: in vivo
# CONDITION_PARAMETERS: mouse, plasma, iv, 30 mg/kg, IV 30 mg/kg, 4 h, read-out: Concentration in Plasma, Mouse 3
MEASURED_METRIC: concentration at 4 h (ng/mL)

GIVEN_SMILES	MEASURED_METRIC	UNIT_TEXT	READING
COc1cccc(CNc2ccc(S(=O)(=O)Nc3cccc(C4(C(F)(F)F)CC4)c3)cc2)c1O	concentration at 4 h	ng/mL	20.6

1. COc1cccc(CNc2ccc(S(=O)(=O)Nc3cccc(Cl)c3)cc2)c1O
2. COc1cccc(CNc2ccc(S(=O)(=O)Nc3cccc(C(F)(F)F)c3)cc2)c1O
Request: Which has the higher concentration at 4 h, 1 or 2 ? Respond using the label that marks the chosen record.
Response: 2

* * *

# PROCEDURE_DETAILS: Pharmacokinetic study of the inhibitors in mice blood plasma (PO and IV)
# Assay type: in vivo
# CONDITION_PARAMETERS: mouse, plasma, iv, 30 mg/kg, IV 30 mg/kg, 2 h, read-out: Concentration in Plasma, Mouse 2
MEASURED_METRIC: concentration at 2 h (ng/mL)

COMPOUND	UNIT_TEXT	READING
COc1cccc(CNc2ccc(S(=O)(=O)Nc3cccc(Cl)c3)cc2)c1O [Compound A1]	ng/mL	124

a. COc1cccc(CNc2ccc(S(=O)(=O)Nc3cccc(C4(C(F)(F)F)CC4)c3)cc2)c1O [Compound A4]
b. COc1cccc(CNc2ccc(S(=O)(=O)Nc3cccc(C(F)(F)F)c3)cc2)c1O [Compound A2]
Request: I'm curious whether a or b has the smaller concentration at 2 h number. Which is it? I would appreciate it if you answered with the label of your choice.
Response: a
(a: 172 ng/mL, b: 333 ng/mL)

* * *

# PROCEDURE_DETAILS: Pharmacokinetic study of the inhibitors in mice blood plasma (PO and IV)
# Assay type: in vivo
# CONDITION_PARAMETERS: mouse, plasma, iv, 30 mg/kg, IV 30 mg/kg, 4 h, read-out: Concentration in Plasma, Mouse 2
MEASURED_METRIC: concentration at 4 h (ng/mL)

GIVEN_SMILES	UNIT_TEXT	READING
COc1cccc(CNc2ccc(S(=O)(=O)Nc3cccc(Cl)c3)cc2)c1O	ng/mL	20.2
COc1cccc(CNc2ccc(S(=O)(=O)Nc3cccc(C4(C(F)(F)F)CC4)c3)cc2)c1O	ng/mL	28.8

* * *

# PROCEDURE_DETAILS: Pharmacokinetic study of the inhibitors in mice blood plasma (PO and IV)
# Format: in vivo
# CONDITION_PARAMETERS: mouse, plasma, po, 30 mg/kg, PO 30 mg/kg, 4 h, n=3 (outliers excluded), read-out: Concentration in Plasma, Mean
MEASURED_METRIC: concentration at 4 h (ng/mL)

MOLECULE	concentration at 4 h (ng/mL)
COc1cccc(CNc2ccc(S(=O)(=O)Nc3cccc(Cl)c3)cc2)c1O [Compound A1]	52.9

P. COc1cccc(CNc2ccc(S(=O)(=O)Nc3cccc(C4(C(F)(F)F)CC4)c3)cc2)c1O [Compound A4]
Q. COc1cccc(CNc2ccc(S(=O)(=O)Nc3cccc(C(F)(F)F)c3)cc2)c1O [Compound A2]
Request: Parameter metric = concentration at 4 h. Return the lower-valued option from P and Q . To answer, give the label that identifies your chosen option.
Response: P
